Target: A13DBD V373A (mouse (murine), UniProt Q62424 320-386, V373A)
Sequence (Q62424 320-386 V373A): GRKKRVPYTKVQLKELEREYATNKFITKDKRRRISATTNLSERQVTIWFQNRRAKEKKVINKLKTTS
Assay: ITC; FA: 20 mM Tris pH 7.5, 80 mM KCl, 10 mM MgCl2, 0.2 mM EDTA, 1 mM DTT, 15 C, 1 nM DNA; NMR complex: 20 mM NaPO4 pH 6.0, 5 mM MgCl2, 10% D2O, 310 K; ITC buffer not given in the material
Conditions: protein: recombinant; tags: His-tag removed by thrombin; blunt
Measure: pKd
Conceptually, pKd converts a concentration in mol/L into minus its log10.

Prompt: Supply recorded pKd for 11-mer duplex WT (dsDNA) DNA 1: CAAATAAAATC DNA 2: GATTTTATTTG here.
Completion: 7.73
